Target: STK24 (human) (UniProt Q9Y6E0)
Sequence (Q9Y6E0 whole entry, looked up): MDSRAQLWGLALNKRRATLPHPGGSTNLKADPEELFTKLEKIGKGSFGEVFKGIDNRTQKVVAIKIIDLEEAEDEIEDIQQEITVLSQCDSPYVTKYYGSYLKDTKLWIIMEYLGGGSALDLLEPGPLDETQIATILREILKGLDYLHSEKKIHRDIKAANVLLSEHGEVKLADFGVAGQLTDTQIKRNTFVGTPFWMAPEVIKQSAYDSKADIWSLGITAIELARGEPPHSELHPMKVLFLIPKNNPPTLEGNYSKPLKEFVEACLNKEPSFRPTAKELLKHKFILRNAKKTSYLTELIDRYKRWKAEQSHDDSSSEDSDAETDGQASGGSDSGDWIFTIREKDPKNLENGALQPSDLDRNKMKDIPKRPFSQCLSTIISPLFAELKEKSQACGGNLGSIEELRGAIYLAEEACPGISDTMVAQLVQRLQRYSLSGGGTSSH
Experiment: radiometric filter-binding kinase assay, Kinase HotSpot
Details: compound 0.5 µM; ATP 10 µM
Give measured residual activity for each item. Keep answers brief.
State the result as a value with its unit after it.

(Q) GET /values?readout=residual activity&system=STK24 (human) (UniProt Q9Y6E0)&item= O=C1NC(=O)/C(=C/c2ccc3c(c2)OC(F)(F)O3)S1
(A) 91.9%

(Q) Moving on to the next compound: O=C1Nc2ccc(Cl)cc2/C1=C/c1cc(Cl)c(O)c(Cl)c1
(A) 104%

(Q) Same question for CCN(CC)CCNC(=O)c1c(C)[nH]c(/C=C2\C(=O)Nc3ccc(F)cc32)c1C please.
(A) 39.7%

(Q) Also Nc1ncnc2c1c(-c1ccc(Oc3ccccc3)cc1)cn2C1CCCC1 ?
(A) 100%

(Q) Input COc1ccc(COc2ccc(Cc3cnc(N)nc3N)cc2OC)cc1
(A) 93.5%

(Q) Likewise for Cc1ccc(Nc2nccc(N(C)c3ccc4c(C)n(C)nc4c3)n2)cc1S(N)(=O)=O ?
(A) 106%

(Q) Field entry: CCCC(=O)Oc1ccc2[nH]c(C(=O)c3cc4ccccc4[nH]3)cc2c1
(A) 95.5%

(Q) # iterate: CCN(CC)C(=O)c1ccc(Nc2nc(OCC3CCCCC3)c3nc[nH]c3n2)cc1
(A) 84.5%

(Q) Please give the result for O=C1NC(=O)c2c1c1c3ccccc3n3c1c1c2c2ccccc2n1C1CCC3O1 too.
(A) 14.3%

(Q) Can you handle CNC(=O)c1cc(Oc2ccc(NC(=O)Nc3ccc(Cl)c(C(F)(F)F)c3)cc2)ccn1 next?
(A) 110%
